FYI, the data here is from PubChem BioAssay (NCI).

test system: NCI-H522 lung; experiment: NCI tumour cell line growth inhibition, 48 h
I'd be grateful if you could share measured TGI for these entries.

Name the recorded TGI of the compound listed here: O=C1CSC(c2ccccc2)N1c1ccc(-c2ccc(-n3c(-c4ccccc4)nc4ccccc4c3=O)cc2)cc1 (stereo not drawn)
> 100 µM

Provide one value: measured TGI of CC1=C2CC[C@@]3(C)C(=CCC3O)C2(C)CCC1=O (stereo partly drawn)
> 100 µM

Could you please provide reported TGI for Nc1ncnc2c1ccn2CC#CCO ? Thanks!
> 100 µM

###

test system: MDA-MB-231 breast; assay: NCI tumour cell line growth inhibition, 48 h
Assignment: determine reported GI50 for the given compounds.

Output GI50 of Cc1ccc(NC(=S)NNC(=S)Nc2ccc(C)cc2)cc1
65.4 µM

Identify measured GI50 corresponding to Cc1nc2ccc(-n3ncc(C(=O)c4cc5ccccc5[nH]4)c3N)cc2[nH]1
10.6 µM

Hello, please tell me recorded GI50 for this one: C[n+]1cccc(NC(=O)c2ccc3ccc4ccc(C(=O)Nc5ccc[n+](C)c5)nc4c3n2)c1
2.41 µM

###

tested on: MDA-MB-435; experiment: NCI tumour cell line growth inhibition, 48 h
Readout Name: TGI

Output measured TGI for this item: CCOC(=O)c1c2ccccc2n2c(=O)n(-c3ccc(OC)cc3)nnc12
> 100 µM

Provide measured TGI value, entry: COc1cc2c(cc1NC(=O)c1ccccc1)c1c(n2S(=O)(=O)c2ccccc2)CCN(S(=O)(=O)c2ccccc2)C1
> 100 µM

Assign TGI to the following record: O=C(CCN1CCCCC1)c1csc2ccccc12
> 100 µM

Specify reported TGI for the molecule shown: COc1cccc(C(=O)NNc2nc(Cl)nc(N3CCN(C(c4ccccc4)c4ccccc4)CC3)n2)c1
14.2 µM

Input COc1ccc2nc3cccc([N+](=O)[O-])c3c(NCCC(=O)O)c2c1 , output reported TGI.
> 10 µM

Note TGI for the molecule shown: Nc1nc2ccc(CNc3ccc(C(=O)NC(CC(=O)O)C(=O)O)cc3)cc2c(=O)[nH]1 (configuration not stated)
> 100 µM

Supply measured TGI of Nc1ccc(Oc2ccc(C34CC5C6CC7(c8ccc(Oc9ccc(N)cc9)cc8)CC5C(C3)C(C7)C6C4)cc2)cc1 in your reply.
> 100 µM

###

system: MALME-3M melanoma; assay: NCI tumour cell line growth inhibition, 48 h; in the data active = GI50 below about 0.43 µM; inactive = the rest
Pick from class 1 (active), class 0 (inactive) when you respond.

How did this test come out for O=C1/C(=C/c2ccc(Cl)cc2)CN(Cc2cn(CCCNc3ccnc4cc(Cl)ccc34)nn2)C/C1=C\c1ccc(Cl)cc1 ?
class 0

Test call, this compound: O=C(Cc1cc(O)ccc1O)NO
class 0

Per the records of this test, what outcome belongs to COC(=O)C1C(C(=O)O)C2(c3ccccc3)C(=O)C1(c1ccccc1)C(c1ccc(OC)cc1)=C2c1ccc(OC)cc1 (stereo not drawn) ?
class 0

Status in this test for C=C(C(=O)c1ccccc1)C(NC(C)(C)C)c1ccccc1 (stereo not drawn) ?
class 0

// outcome(item) with item = Nc1c(C(=O)Nc2cccc(Cl)c2)sc2nc3c(cc12)C(O)CCC3 (stereo not drawn)
class 0

Recorded test outcome, item NC(=O)c1c[nH]c2ncnc(N)c12
class 0

Returns: the outcome recorded for Cc1[nH]c(C(=O)Nc2cccc(OC3CCNCC3)c2)c(Cl)c1Cl in this assay.
class 0

Entry Cn1cc(-c2csc(-c3ccccc3)n2)c2cccnc21 : call = ?
class 0

Can you look up the reported call for Clc1nc(Cl)c2ncn(-c3ccccc3)c2n1 for me?
class 0

Field: outcome | Entry: CC(C)n1cc(-c2ccc3c(c2)N(C)CC3)c2c(NS(=O)(=O)c3ccn(C)n3)ccnc21
class 0

Name the outcome recorded for COc1ccc2c(c1)OCC1c3cc(OC)c4ccccc4c3OC21 (stereo not drawn) in the assay.
class 0

Call for entry CCCCCCCCCCCCCCCC(=O)NS(=O)(=O)OC[C@H]1O[C@@H](n2cnc3c(N)ncnc32)[C@H](O)[C@@H]1O :
class 0

Dear all, I need the recorded test outcome for COc1ccc(C2=C(c3ccccc3)C(=O)N3CCCC3C2)cc1 (stereo not drawn) , thank you.
class 0

Recorded test outcome, item COc1ccccc1CNCCCN1C(=O)c2ccc3c4c(ccc(c24)C1=O)C(=O)N(CCCNCCCCNCCCN)C3=O
class 1

Test call for this compound, please: CCN1CCN(Cc2ccc(Nc3ncc(F)c(-c4cc(F)c5nc(C)n(C(C)C)c5c4)n3)nc2)CC1
class 1

Outcome logged for COc1ccc(-c2nc3sccn3c2-c2ccnc(NCCNS(=O)(=O)c3ccc(C(F)(F)F)cc3)n2)cc1 in this assay:
class 0

Record lookup: outcome of this test for CC(=O)OC(C(=O)[O][Ge]([CH3])([CH3])[CH3])c1ccccc1 (stereo not drawn) ?
class 0

# lookup: test call for COc1cc2c(Nc3ccc(-c4ccc(N)cc4)cc3)ncnc2c(OC)c1OC
class 0

###

test system: MCF7 breast; assay: NCI tumour cell line growth inhibition, 48 h
Readout Name: TGI

Answer with reported TGI of Cc1cc(O)ccc1C1(c2ccc(O)cc2C)OC(=O)c2ccccc21
36.5 µM

For CS(=O)(=O)N1CCC(Nc2ncc(C(=O)c3c(F)cccc3F)c(N)n2)CC1 , write its TGI.
> 25 µM

Item COc1cccc(CCn2c(N)c(-c3cc(Cl)cc(Cl)c3)c3ccc([N+](=O)[O-])cc3c2=O)c1 : provide TGI
89.2 µM

Quote TGI reported for CC(C)N(CC(=O)O)CC(=O)O please.
> 100 µM

Read off the recorded TGI for Nc1nc(N)c2cc(S(=O)(=O)c3ccc4ccccc4c3)ccc2n1
> 100 µM

Identify measured TGI associated with COc1ccc(C2=C(c3ccccc3)C(=O)N3CCCC3C2)cc1 (stereo not drawn)
> 100 µM

Please report TGI for the following compound: O=C1CCc2cc(Br)ccc2O1
> 100 µM

Tell me TGI reported for COc1ccc2[nH]c(C(=O)OCc3ccc4c(Br)cc(Br)c(O)c4n3)cc2c1
2.05 µM

###

Assignment: determine reported TGI for the given compounds.
system: SK-MEL-28 melanoma; assay: NCI tumour cell line growth inhibition, 48 h

Fill in: TGI on SK-MEL-28 melanoma, entry Nc1c(F)c(F)c2c(c1F)N(CCCCCl)c1ccccc1S2
> 100 µM

Consider the compound O=C(O)C1=C(CO)Oc2cc3c(cc2C1c1ccc2c(c1)OCO2)OCO3 (stereo not drawn) tested on SK-MEL-28 melanoma; state its TGI.
> 100 µM

Check SK-MEL-28 melanoma data and give TGI for CC1(C)N=C(N)N=C(N)N1c1ccc(OCC(=O)Nc2ccc(S(=O)(=O)F)cc2Cl)c(Cl)c1 .
> 100 µM

###

tested on: CCRF-CEM leukemia; experiment: NCI tumour cell line growth inhibition, 48 h
Readout Name: TGI

For the compound CNC(=O)O/N=C1\N(C)CN(c2ccccc2)C12CCN(CCCC(=O)c1ccc(F)cc1)CC2 , give its reported TGI.
> 100 µM

Report TGI for CN1C(=O)C(N=Nc2ccc([N+](=O)[O-])cc2)SC1=S (stereo not drawn)
> 100 µM

Dear colleague, please send me the reported TGI for CCc1ccc(Oc2c(-c3ccc(OCCc4cccc(C(F)(F)F)c4)cc3O)n[nH]c2C(F)(F)F)cc1 when you can.
9.18 µM

###

tested on: NCI-H23 lung; test: NCI tumour cell line growth inhibition, 48 h
Where a SMILES comes first, the peptide text is derived from it. [ ]: non-standard residue; d: D form. The star is where a group is joined. ξ: configuration not given here. NMeY = CN[C@@H](Cc1ccc(O)cc1)C(=O)O; Cbz = O=C(OCc1ccccc1)*; ξA = CC(N)C(=O)O
Readout Name: TGI

Provide measured TGI value, entry: C1=NN2C(c3ccccc3)=NOC2C2C(c3ccccc3)=NOC12 (stereo unspecified)
> 100 µM

Identify TGI associated with the molecule NC1=NC(c2ccc(Cl)cc2)=CC(c2cccc(Cl)c2)S1 (stereo unspecified)
> 100 µM

Identify the reported TGI for the following entry. CCCCCN1C(=O)C(Cc2ccccc2)N=C(c2ccc(O)cc2)c2cc(Cl)ccc21 (stereo unspecified)
17.7 µM

Return the recorded TGI value; entry: Cc1ccc(NC(=S)NNC(=S)Nc2ccc(C)cc2)cc1
> 100 µM

// fetch TGI given entry CC(=O)Oc1ccc2c(c1)[nH]c1c3ccc(OC(C)=O)cc3oc(=O)c21
> 100 µM

Kindly indicate its recorded TGI. Item: C1CSCCSCCSCCSCCS1
> 100 µM

Note TGI for the molecule shown: CC(=O)N1C(c2[nH]c3ccccc3c2Cc2ccccc2)CCN1c1ccccc1 (stereo unspecified)
> 10 µM

Give the measured TGI for COc1ccc(C[C@@H](C(=O)N[C@@H](C)C(N)=O)N(C)C(=O)[C@@H]2CCCN2C(=O)[C@H](CC(C)C)NC(=O)C(C)NC(=O)OCc2ccccc2)cc1 (stereo partly specified) (Cbz-[ξA]LP[NMeY](Me)A-NH2)
> 100 µM

Give the reported value of TGI for this record: O=C1CCC(=O)c2ccccc2N1
> 100 µM

Determine from records and report TGI for CC(C)C[C@H](NC(=O)[C@@H](Cc1ccccc1)n1ccc(Nc2ccccc2)cc1=O)B(O)O
19.4 µM

Name the recorded TGI of the item COc1nc(=O)[nH]c2c1C(c1ccc([N+](=O)[O-])cc1)c1c(OC)nc(=O)[nH]c1O2 in your answer.
> 100 µM
